Test system: PPARg DBDmut IVT, anti-PPARg (DBD mutation: PPARg1 K132A/R137A, NR concentration 270 nM)
experiment_notes: PBM binding z-score (relative to random genomic background probes); higher = stronger binding; sequences stand for … in GC…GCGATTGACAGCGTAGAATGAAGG
PBM binding z-score values by entry
No unit in the answer, only the number.

Before answering, review these 5 worked examples.
sequence_code	PBM binding z-score
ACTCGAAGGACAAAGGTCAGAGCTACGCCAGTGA	-0.263
CTACCAAGGTGAAAAAGGTCGTTGATTACTATTC	-0.0502
TCTCGGAGCACACGAAAGGTCAGAGCTCGACATC	-0.475
GCTCGGAGGACAAGGTCAGAGGTTTGTCCGTAGA	-0.886
TCTTGAAGATCAAGCAGGTTAAGAAAGCCTGAGT	-0.888

Req: Identify measured PBM binding z-score corresponding to ATCTCTAGGTAAAGTTCAGTGAGAGATCGATAGA
Resp: 0.672

Req: Identify measured PBM binding z-score corresponding to AGAGTGAGGTTATTAAGATCAGGGAATTGCGGTC
Resp: 0.468

Req: Identify measured PBM binding z-score corresponding to GCGACTGGGGCATCAGCAGGTTATCATAACTTAA
Resp: -0.757

Req: Identify measured PBM binding z-score corresponding to TCTCGGAGGACACGAAGTTCAGAGCTTTCCAGAG
Resp: -1.05

Req: Identify measured PBM binding z-score corresponding to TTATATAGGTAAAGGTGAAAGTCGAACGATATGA
Resp: 2.82

Req: Identify measured PBM binding z-score corresponding to TAGCCTAGGTCAGATCGGGCCTGTATACGCTATA
Resp: 0.156

Req: Identify measured PBM binding z-score corresponding to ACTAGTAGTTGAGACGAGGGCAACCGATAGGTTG
Resp: -0.849

###

System: LXRa homodimer (NR concentration 270 nM)
experiment_notes: PBM binding z-score (relative to random genomic background probes); higher = stronger binding; sequences stand for … in GC…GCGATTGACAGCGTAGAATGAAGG
Decision: PBM binding z-score compared against 0.5; not below it gives 1 (yes), below it gives 0 (no).

Req: Quick check, PBM binding z-score >= 0.5? CAAACTAGGTCAAAGGTCCAAGTCGAGCCAACCA
Resp: 1 (yes)

Req: Quick check, PBM binding z-score >= 0.5? TCGAGTAGGTTAGTCGCGGCATTCAGCCAACATA
Resp: 0 (no)

###

System: VDR:RXRa (NR concentration 270 nM, RXRa partner concentration 90 nM)
experiment_notes: PBM binding z-score (relative to random genomic background probes); higher = stronger binding; sequences stand for … in GC…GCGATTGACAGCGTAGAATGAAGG
// thresholds for PBM binding z-score classes: bucket 1 = under 0.6, bucket 2 = from 0.6 up to 2, bucket 3 = 2 and over

Please review the following examples before continuing.
sequence_code	category
AGAAGGAGGTTACCAAAGATCAGGGAAACGCTTG	bucket 2
CCTGCTAGGTCGATGGTCAGCTAAAGCAGCTCGC	bucket 1
GATACAGGGTCACGGCCAGAGTACGCGTATTGAT	bucket 3
CAAACTAGGTCAAGCTCAAAGTCGGTTTGTGCCA	bucket 2
CAAACTAGGTCATTGACAGGACAGTGAATAGTAA	bucket 3

Turning now to a further sequence:
Req: // return the class label for GGAACGAGCGCAAGTTGATAGCAGAGTTTGATGG
Resp: bucket 1
